The measurements presented in this section are drawn from patent US20160009727A1.

- System: U87MG (glioblastoma)
- assay-protocol: U-87 MG WST assay (cell growth / cell viability)
- Assay type: cell-based, human
- experimental-context: Homo sapiens; second U-87 MG WST assay, FIG. 5; read-out: IC50, second U-87 MG WST assay
pIC50: −log10 of the molar value.
Listing of recorded pIC50 by entry.

Sample answers from the record:
# molecule, system-under-test, measured
data = [
    ("c1cc2c(cnc3c4cc5c(cc4ccc23)OCO5)c2c1OCO2", "U87MG (glioblastoma)", "< 5.00"),
    ("c1c2c(cc3c1OCO3)-c1ncc3c4c(ccc3c1CC2)OCO4", "U87MG (glioblastoma)", "< 5.00"),
    ("CC[C@@]1(O)C(=O)OCc2c1cc1n(c2=O)Cc2cc3c(CN(C)C)c(O)ccc3nc2-1 [Topotecan, reference compound]", "U87MG (glioblastoma)", "~6.52"),
    ("C[n+]1cc2c3c(ccc2c2ccc4cc5c(cc4c21)OCO5)OCO3 [sanguinarine, reference compound]", "U87MG (glioblastoma)", 5.70),
]

Input: Identify pIC50 associated with the molecule CC[n+]1cc2c3c(ccc2c2ccc4cc5c(cc4c21)OCO5)OCO3.[Cl-]
Output: ~5.48

====

Listing of recorded pIC50 by entry.
- Tested on: A549 (lung carcinoma)
- assay-protocol: A549 WST assay (cell growth / cell viability)
- Type: cell-based, human
- experimental-context: Homo sapiens; A549 (lung carcinoma); summary, FIG. 1 / Discussion; read-out: IC50, inhibition of growth in vitro of A549
The read-out pIC50 is expressed as -log10 of concentration in moles per litre.

# compound, pIC50
measured = [
    ("C[n+]1cc2c3c(ccc2c2ccc4cc5c(cc4c21)OCO5)OCO3 [sanguinarine, reference compound]", 6.10),
]

Input: Given CC[C@@]1(O)C(=O)OCc2c1cc1n(c2=O)Cc2cc3c(CN(C)C)c(O)ccc3nc2-1 [Topotecan, reference compound] , report its pIC50 on A549 (lung carcinoma).
Output: 6.70

====

Listing of recorded pIC50 by entry.
- System: U87MG (glioblastoma)
- assay-protocol: U-87 MG WST assay (cell growth / cell viability)
- Format: cell-based, human
- experimental-context: Homo sapiens; first U-87 MG WST assay, FIG. 4; read-out: IC50, first U-87 MG WST assay
pIC50: −log10 of the molar value.

# compound, system-under-test, pIC50
rows = [
    ("C[n+]1cc2c3c(ccc2c2ccc4cc5c(cc4c21)OCO5)OCO3 [sanguinarine, reference compound]", "U87MG (glioblastoma)", 5.70),
    ("c1cc2c(cnc3c4cc5c(cc4ccc23)OCO5)c2c1OCO2", "U87MG (glioblastoma)", "< 5.00"),
    ("CC[n+]1cc2c3c(ccc2c2ccc4cc5c(cc4c21)OCO5)OCO3.[Cl-]", "U87MG (glioblastoma)", "~5.48"),
    ("CC[C@@]1(O)C(=O)OCc2c1cc1n(c2=O)Cc2cc3c(CN(C)C)c(O)ccc3nc2-1 [Topotecan, reference compound]", "U87MG (glioblastoma)", "~6.52"),
]

Switching to the query record.
Input: Identify pIC50 associated with the compound c1c2c(cc3c1OCO3)-c1ncc3c4c(ccc3c1CC2)OCO4
Output: < 5.00

====

Listing of recorded IC50 by entry.
- Test system: A549 (lung carcinoma)
- assay-protocol: A549 WST assay (cell growth / cell viability)
- Format: cell-based, human
- experimental-context: Homo sapiens; A549 (lung carcinoma); summary, FIG. 1 / Discussion; read-out: IC50, inhibition of growth in vitro of A549

Sample answers from the record:
# molecular-string, measured
data = [
    ("c1c2c(cc3c1OCO3)-c1ncc3c4c(ccc3c1CC2)OCO4", "> 10 µM"),
    ("c1cc2c(cnc3c4cc5c(cc4ccc23)OCO5)c2c1OCO2", "> 10 µM"),
]

Switching to the query record.
Input: Identify IC50 associated with the compound CC[n+]1cc2c3c(ccc2c2ccc4cc5c(cc4c21)OCO5)OCO3.[Cl-]
Output: ~1.6 µM
